Values compiled from patent US20200283478A1.

IC50 for assorted binders
molecular target: T1, His-tagged, full-length PCSK9 (human, UniProt Q8NBP7 31-692); assay: TR-FRET competition; His-PCSK9, competitor EGF(A)-Fc
T1 construct: The secreted protein is autocleaved into a prodomain and a catalytic/Cys-rich chain that starts at S153; also called His-PCSK9
T1 sequence (Q8NBP7 other isoform, or with tags, fused parts or gaps limits assumed): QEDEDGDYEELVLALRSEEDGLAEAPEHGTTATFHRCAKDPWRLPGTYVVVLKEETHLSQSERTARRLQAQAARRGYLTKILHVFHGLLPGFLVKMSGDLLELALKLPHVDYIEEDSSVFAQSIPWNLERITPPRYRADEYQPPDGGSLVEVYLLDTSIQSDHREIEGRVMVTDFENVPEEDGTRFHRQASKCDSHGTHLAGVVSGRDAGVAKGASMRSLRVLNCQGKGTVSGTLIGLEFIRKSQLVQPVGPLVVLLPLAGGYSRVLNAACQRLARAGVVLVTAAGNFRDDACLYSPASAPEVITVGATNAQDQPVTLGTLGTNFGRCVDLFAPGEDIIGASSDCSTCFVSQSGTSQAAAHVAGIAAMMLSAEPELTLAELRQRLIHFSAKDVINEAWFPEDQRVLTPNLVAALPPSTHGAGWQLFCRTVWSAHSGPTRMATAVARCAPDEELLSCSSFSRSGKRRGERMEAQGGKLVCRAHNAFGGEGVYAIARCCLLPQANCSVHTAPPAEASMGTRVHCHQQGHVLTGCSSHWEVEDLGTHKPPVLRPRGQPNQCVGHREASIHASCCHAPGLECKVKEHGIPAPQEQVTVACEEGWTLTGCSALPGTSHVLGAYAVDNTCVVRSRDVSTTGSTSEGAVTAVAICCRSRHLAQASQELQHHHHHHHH
Square brackets hold non-standard residues; d marks the D form. Ends that are not written are not given here. * marks the point of attachment. hArg = N=C(N)NCCCC[C@H](N)C(=O)O; Pentanoyl = CCCCC(=O)*

(Q) Looking for the measured IC50 of WNLVRIGLLR (also: further groups not given here, Structure printed only as a drawing) [Compound 138] , can you help?
(A) 48 µM

(Q) Looking for the measured IC50 of WNLVRIGLLR (also: further groups not given here, Structure printed only as a drawing) [Compound 130] , can you help?
(A) ≥ 50 µM

(Q) Looking for the measured IC50 of Pentanoyl-WNLVRIGLTR [Compound 176] , can you help?
(A) ≥ 50 µM

(Q) Looking for the measured IC50 of Ac-SFAFPGWNLV[hArg]IGLLR-NH2 (SMILES CC[C@H](C)[C@H](NC(=O)[C@H](CCCCNC(=N)N)NC(=O)[C@@H](NC(=O)[C@H](CC(C)C)NC(=O)[C@H](CC(N)=O)NC(=O)[C@H](Cc1c[nH]c2ccccc12)NC(=O)CNC(=O)[C@@H]1CCCN1C(=O)[C@H](Cc1ccccc1)NC(=O)[C@H](C)NC(=O)[C@H](Cc1ccccc1)NC(=O)[C@H](CO)NC(C)=O)C(C)C)C(=O)NCC(=O)N[C@@H](CC(C)C)C(=O)N[C@@H](CC(C)C)C(=O)N[C@@H](CCCNC(=N)N)C(N)=O) [Compound 228] , can you help?
(A) 1.3 µM

(Q) Looking for the measured IC50 of Pentanoyl-WNLV[hArg]IGLTR-NH2 (SMILES CCCCC(=O)N[C@@H](Cc1c[nH]c2ccccc12)C(=O)N[C@@H](CC(N)=O)C(=O)N[C@@H](CC(C)C)C(=O)N[C@H](C(=O)N[C@@H](CCCCNC(=N)N)C(=O)N[C@H](C(=O)NCC(=O)N[C@@H](CC(C)C)C(=O)N[C@H](C(=O)N[C@@H](CCCNC(=N)N)C(N)=O)[C@@H](C)O)[C@@H](C)CC)C(C)C, also called n-BuC(O)-WNLV(homoR)IGLTR-NH2) [Compound 234] , can you help?
(A) ≥ 50 µM

(Q) Looking for the measured IC50 of WNLVRIGLLR (also: further groups not given here, Structure printed only as a drawing) [Compound 148] , can you help?
(A) 19 µM

(Q) Looking for the measured IC50 of WNLVRIGLLR (also: further groups not given here, Structure printed only as a drawing) [Compound 140] , can you help?
(A) ≥ 50 µM

(Q) Looking for the measured IC50 of Ac-DLMPWNLVRIGLPR-NH2 [Compound 160] , can you help?
(A) ≥ 50 µM
